Cited source: PubChem BioAssay (Tox21)

measurement.target: Estrogen receptor (Homo sapiens) (UniProt P03372)
Sequence (P03372 whole entry, looked up): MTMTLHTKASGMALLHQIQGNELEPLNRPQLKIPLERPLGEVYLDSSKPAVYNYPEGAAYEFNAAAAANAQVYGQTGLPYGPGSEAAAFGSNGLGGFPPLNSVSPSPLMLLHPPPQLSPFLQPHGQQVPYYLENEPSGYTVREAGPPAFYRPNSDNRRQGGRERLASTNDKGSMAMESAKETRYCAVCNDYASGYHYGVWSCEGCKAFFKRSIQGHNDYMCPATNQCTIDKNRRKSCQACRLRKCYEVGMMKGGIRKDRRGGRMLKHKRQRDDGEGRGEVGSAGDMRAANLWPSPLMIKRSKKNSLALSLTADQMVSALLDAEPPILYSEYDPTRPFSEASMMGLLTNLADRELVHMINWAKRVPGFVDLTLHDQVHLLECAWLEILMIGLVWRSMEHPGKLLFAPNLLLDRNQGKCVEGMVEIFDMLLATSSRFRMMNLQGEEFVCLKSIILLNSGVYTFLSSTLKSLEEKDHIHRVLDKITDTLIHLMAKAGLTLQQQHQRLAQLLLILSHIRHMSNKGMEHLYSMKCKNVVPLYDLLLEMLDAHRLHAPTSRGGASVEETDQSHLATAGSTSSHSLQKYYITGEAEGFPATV
experimental.protocol: qHTS assay to identify small molecule antagonists of the estrogen receptor alpha (ER-alpha) signaling pathway (AID 743069)
condition.details: HEK293 ER-alpha-UAS-bla, beta-lactamase ratio, antagonist mode; series mostly up to 69.4 µM
Activity calls are given as the source filed them. Calls come from the whole dose curve; as a rule, active = well fitted curve in the direction sought with a large enough effect in the signal ratio in the repeat runs (not every such curve was filed as active); inconclusive = weak or mixed curves, or effect the other way; inactive = no such curve, though single readings can be large or run the other way; the % refers to the signal ratio.
Labels: Y for active, N for inactive

compound	class.assignment
CC(C)N=c1cc2n(-c3ccc(Cl)cc3)c3ccccc3nc-2cc1Nc1ccc(Cl)cc1	N
CC1(C)S[C@@H]2[C@H](NC(=O)C(C(=O)Oc3ccc4c(c3)CCC4)c3ccccc3)C(=O)N2[C@H]1C(=O)O (stereo partly drawn)	N
CS(=O)(=O)NC(=O)CCC/C=C\C[C@H]1C(=O)C[C@@H](O)[C@@H]1/C=C/[C@H](O)COc1ccccc1	N
C=CCSSSCC=C	N
CC(C)(C)NC[C@H](O)COc1ccccc1C1CCCC1	N
CC[C@@]1(O)C[C@H](O[C@H]2C[C@H](N(C)C)[C@H](O[C@H]3C[C@H](O)[C@H](O[C@H]4CCC(=O)[C@H](C)O4)[C@H](C)O3)[C@H](C)O2)c2c(cc3c(c2O)C(=O)c2c(O)cccc2C3=O)[C@H]1C(=O)OC	Y
CCCCCCCCCCCCCCCC(=O)OCC(COC(=O)CCCCCCCCCCCCCCC)OC(=O)CCCCCCCCCCCCCCC	N
OC[C@H]1O[C@@H](O[C@H]2[C@H](O)[C@@H](O)[C@H](O)O[C@@H]2CO)[C@H](O)[C@@H](O)[C@@H]1O	N
